# Assay system: EGFR-L858R (Homo sapiens (Human), UniProt P00533, L858R)
# Sequence (P00533 25-1210 L858R): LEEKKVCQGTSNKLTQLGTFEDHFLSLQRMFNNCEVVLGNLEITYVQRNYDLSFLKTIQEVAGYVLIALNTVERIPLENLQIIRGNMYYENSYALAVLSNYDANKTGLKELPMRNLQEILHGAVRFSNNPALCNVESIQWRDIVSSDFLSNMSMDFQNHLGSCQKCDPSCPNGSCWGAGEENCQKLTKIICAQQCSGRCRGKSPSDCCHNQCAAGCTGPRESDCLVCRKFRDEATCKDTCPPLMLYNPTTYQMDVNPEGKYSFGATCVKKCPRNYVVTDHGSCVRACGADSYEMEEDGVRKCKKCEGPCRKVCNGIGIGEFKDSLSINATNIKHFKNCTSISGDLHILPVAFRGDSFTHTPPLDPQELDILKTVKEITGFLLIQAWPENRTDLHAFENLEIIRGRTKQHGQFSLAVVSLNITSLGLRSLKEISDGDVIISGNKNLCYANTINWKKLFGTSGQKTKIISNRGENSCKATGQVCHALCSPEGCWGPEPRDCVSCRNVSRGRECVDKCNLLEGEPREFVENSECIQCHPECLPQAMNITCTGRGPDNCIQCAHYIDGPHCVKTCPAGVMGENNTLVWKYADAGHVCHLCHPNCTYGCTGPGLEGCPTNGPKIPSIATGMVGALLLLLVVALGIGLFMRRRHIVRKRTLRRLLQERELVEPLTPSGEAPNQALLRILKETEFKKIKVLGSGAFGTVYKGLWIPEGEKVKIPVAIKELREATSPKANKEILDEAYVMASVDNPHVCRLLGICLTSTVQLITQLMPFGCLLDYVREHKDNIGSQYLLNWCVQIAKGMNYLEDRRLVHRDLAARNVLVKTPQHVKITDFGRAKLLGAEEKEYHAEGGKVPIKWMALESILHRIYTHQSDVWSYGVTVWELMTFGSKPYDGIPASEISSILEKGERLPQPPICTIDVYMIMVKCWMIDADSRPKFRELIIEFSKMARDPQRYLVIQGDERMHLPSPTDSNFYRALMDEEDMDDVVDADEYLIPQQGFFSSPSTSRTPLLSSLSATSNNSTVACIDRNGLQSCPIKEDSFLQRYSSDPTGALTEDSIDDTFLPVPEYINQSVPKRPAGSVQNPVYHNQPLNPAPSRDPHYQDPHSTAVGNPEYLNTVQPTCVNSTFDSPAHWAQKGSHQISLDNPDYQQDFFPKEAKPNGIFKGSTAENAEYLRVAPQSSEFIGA
# Assay remarks: In vitro EGFR kinase activity assay (Z'-Lyte);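 also: Cell-free kinase reaction with peptide substrate and ATP, 1.5 h at room temperature, then development step cleaving non-phosphorylated peptide, 10-point dilution series 0.051–1000 nM, phosphopeptide as 100% phosphorylation control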
# Assay type: biochemical
# Measurement parameters: read-out: Inhibitory activity on EGFR kinase (IC50, nM) L858R
Readout name: IC50 (nM)

Please review the following examples before continuing.
                                   molecule  readout_name  units  obs_value
0  C=CC(=O)Nc1ccc(-n2c(=O)cnc3cnc(Nc4ccc(OC)cc4)nc32)cc1 [Compound 002]          IC50     nM        546
1  C=CC(=O)Nc1ccc(-n2c(=O)cnc3cnc(Nc4ccc(Cl)cc4)nc32)cc1 [Compound 016]          IC50     nM        116
2  C=CC(=O)Nc1cccc(-n2c(=O)cnc3cnc(Nc4ccc(N5CCCCC5)cc4)nc32)c1 [Compound 021]          IC50     nM       11.7
3  C=CC(=O)Oc1ccc(-n2c(=O)cnc3cnc(Nc4ccc(OC)cc4)nc32)cc1 [Compound 011]          IC50     nM       84.8
4  C=CC(=O)Nc1ccc(Nc2ncc3ncc(=O)n(-c4ccc(OC)cc4)c3n2)cc1 [Compound 029]          IC50     nM       1320
5  COc1ccc(Nc2ncc3ncc(=O)n(-c4ccc(NC(=O)/C=C/CN(C)C)cc4)c3n2)cc1 [Compound 009]          IC50     nM       81.1

I: C=CC(=O)Nc1cccc(-n2c(=O)cnc3cnc(Nc4ccc(N5CCN(C)CC5)cc4)nc32)c1 [Compound 020]
II: C=CC(=O)Nc1ccc(-n2c(=O)cnc3cnc(Nc4ccccc4)nc32)cc1 [Compound 014]
Which numeric IC50 is bigger, that of I or that of II ? Provide the label of your selected option as the answer.
II
(II: 26.4 nM, I: 1.2 nM)

A: C=CC(=O)Nc1cccc(Nc2ncc3ncc(=O)n(-c4ccc(OC)cc4)c3n2)c1 [Compound 027]
B: C=CC(=O)Nc1cccc(-n2c(=O)cnc3cnc(Nc4ccc(NC(C)=O)cc4)nc32)c1 [Compound 024]
C: C=CC(=O)Nc1ccc(-n2c(=O)cnc3cnc(Nc4ccc(N5CCN(C)CC5)cc4OC)nc32)cc1 [Compound 031]
D: CN(C)C/C=C/C(=O)Nc1ccc(-n2c(=O)cnc3cnc(Nc4ccccc4)nc32)cc1 [Compound 012]
Ordering criterion: IC50; begin with the maximum. Please express your ranking as an ordered list of the labels.
D, A, C, B
(D: 5340 nM, A: 1710 nM, C: 376 nM, B: 13.4 nM)

I: C=CC(=O)Nc1cccc(-n2c(=O)cnc3cnc(Nc4ccc(OC)cc4)nc32)c1 [Compound 006]
II: C=CC(=O)Nc1ccc(-n2c(=O)cnc3cnc(Nc4ccc(N5CCOCC5)cc4)nc32)cc1 [Compound 003]
Pick one, I or II : lowest reported IC50. Provide the label of your selected option as the answer.
I

Measured values drawn from patent US9670213B2 for this set.
